Hey, just so you know, these numbers are from ChEMBL document CHEMBL1134781.

Target: MOLT-4
Assay: Inhibitory concentration against MOLT-4 cells (human T-cell leukemia cell line)
quantity.name: IC50 (µM)

> print(dat)
                                   compound  quantity.name  recorded.result
1  COC1=C(C(=O)N[C@H](C=O)Cc2ccccc2)N(C)S(=O)(=O)c2ccccc21           IC50              3.2
2  COc1cc2c(cc1OC)S(=O)(=O)N(C)C(C(=O)N[C@H](C=O)Cc1ccccc1)C2 (stereo not given in full)           IC50              1.9
3  CN1C(C(=O)N[C@H](C=O)Cc2ccccc2)Cc2cc(Cl)ccc2S1(=O)=O (stereo not given in full)           IC50              2.2
4  CN1C(C(=O)N[C@H](C=O)Cc2ccccc2)Cc2ccccc2S1(=O)=O (stereo not given in full)           IC50              1.7

(I) CN1C(C(=O)N[C@H](C=O)CCCCNS(=O)(=O)c2ccccc2)Cc2cc3c(cc2S1(=O)=O)OCCO3 (stereo not given in full)
(II) CN1C(C(=O)N[C@H](C=O)Cc2ccccc2)Cc2cc(N3CCOCC3)ccc2S1(=O)=O (stereo not given in full)
(III) CN1C(C(=O)N[C@H](C=O)Cc2ccccc2)=Cc2cc3c(cc2S1(=O)=O)OCCO3
(IV) CC(C)N1C(C(=O)N[C@H](C=O)Cc2ccccc2)Cc2cc3c(cc2S1(=O)=O)OCCO3 (mixture of isomers)
Query: Arrange these compounds by their IC50, starting with the largest number. Hello, could you send the labels back in the order asked? Thank you.
Result: II, IV, I, III
(II: 4.1 µM, IV: 2.6 µM, I: 1.8 µM, III: 0.9 µM)

###

Target: Calpain-1 catalytic subunit (Homo sapiens, UniProt P07384)
Experiment: Inhibitory activity against calpain-I
quantity.name: IC50 (nM)

(I) O=C[C@H](Cc1ccccc1)NC(=O)C(Cc1ccccc1)NS(=O)(=O)c1ccccc1 (some centres not stated)
(II) CS(=O)(=O)NC(COCc1ccccc1)C(=O)N[C@H](C=O)Cc1ccccc1 (some centres not stated)
Query: Smaller IC50 value, I vs II ? Bench note: the answer is the label of the chosen record.
Result: II
(II: 11 nM, I: 20 nM)

###

Target: Calpain-1 catalytic subunit (Homo sapiens, UniProt P07384)
Sequence (P07384 whole entry): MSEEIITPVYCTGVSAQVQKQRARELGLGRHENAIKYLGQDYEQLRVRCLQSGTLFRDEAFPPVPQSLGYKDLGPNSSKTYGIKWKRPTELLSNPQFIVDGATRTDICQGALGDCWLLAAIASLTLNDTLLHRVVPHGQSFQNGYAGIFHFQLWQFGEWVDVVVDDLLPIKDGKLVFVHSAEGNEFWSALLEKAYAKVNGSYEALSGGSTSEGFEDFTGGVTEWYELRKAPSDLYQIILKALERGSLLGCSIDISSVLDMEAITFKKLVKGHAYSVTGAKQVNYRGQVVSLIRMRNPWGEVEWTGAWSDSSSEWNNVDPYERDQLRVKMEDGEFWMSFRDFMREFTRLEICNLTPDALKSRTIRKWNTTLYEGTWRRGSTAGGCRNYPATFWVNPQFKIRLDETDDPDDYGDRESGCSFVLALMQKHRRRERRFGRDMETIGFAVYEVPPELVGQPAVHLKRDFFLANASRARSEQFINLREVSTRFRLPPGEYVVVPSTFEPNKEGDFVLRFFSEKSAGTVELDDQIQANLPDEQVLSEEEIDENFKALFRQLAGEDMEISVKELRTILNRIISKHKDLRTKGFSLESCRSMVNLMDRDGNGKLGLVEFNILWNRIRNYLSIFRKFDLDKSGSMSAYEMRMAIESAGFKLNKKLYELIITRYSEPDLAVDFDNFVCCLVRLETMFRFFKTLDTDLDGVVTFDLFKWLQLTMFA
Assay: Compound was evaluated for inhibitory activity towards human calpain I isomer 1
quantity.name: IC50 (nM)
Your answer should be a plain number; it is taken to be in nM.

Query: Return IC50 (reported value) for this compound: CN1C(=O)c2ccccc2CC1C(=O)N[C@H](C=O)Cc1ccccc1 (some centres not stated)
Result: 85

###

Molecular target: Calpain-1 catalytic subunit (Homo sapiens)
Sequence (P07384 whole entry): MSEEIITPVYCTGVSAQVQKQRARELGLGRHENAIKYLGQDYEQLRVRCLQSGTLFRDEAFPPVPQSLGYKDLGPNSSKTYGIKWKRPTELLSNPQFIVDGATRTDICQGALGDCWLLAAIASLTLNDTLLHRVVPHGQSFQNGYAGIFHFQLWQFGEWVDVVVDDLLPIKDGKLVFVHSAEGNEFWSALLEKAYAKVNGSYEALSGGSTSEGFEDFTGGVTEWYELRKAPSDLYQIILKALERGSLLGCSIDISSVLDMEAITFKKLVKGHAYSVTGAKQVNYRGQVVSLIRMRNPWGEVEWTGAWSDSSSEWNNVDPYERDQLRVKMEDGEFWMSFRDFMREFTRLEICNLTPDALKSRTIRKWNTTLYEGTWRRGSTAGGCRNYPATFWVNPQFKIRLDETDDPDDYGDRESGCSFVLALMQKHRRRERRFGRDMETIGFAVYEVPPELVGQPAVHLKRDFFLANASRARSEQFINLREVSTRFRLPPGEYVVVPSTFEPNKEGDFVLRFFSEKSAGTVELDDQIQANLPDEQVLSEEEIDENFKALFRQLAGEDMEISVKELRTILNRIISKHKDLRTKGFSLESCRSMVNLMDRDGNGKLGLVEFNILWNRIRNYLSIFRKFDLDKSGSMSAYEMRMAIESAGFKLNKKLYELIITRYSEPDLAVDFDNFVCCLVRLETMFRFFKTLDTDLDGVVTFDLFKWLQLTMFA
Assay: Inhibitory activity towards human calpain I
pIC50: −log10 of the molar value.
quantity.name: pIC50

> print(dat)
                                   molecule  recorded.result
1  COc1cc2c(cc1OC)S(=O)(=O)N(Cc1ccccc1)C(C(=O)N[C@H](C=O)Cc1ccccc1)C2 (stereo not given in full)             6.00
2  COc1cc2c(cc1OC)S(=O)(=O)NC(C(=O)N[C@H](C=O)Cc1ccccc1)C2 (stereo not given in full)             6.10

(P) CN1C(C(=O)N[C@H](C=O)Cc2ccccc2)Cc2cc(N3CCOCC3)ccc2S1(=O)=O (stereo not given in full)
(Q) CC(C)CN1C(C(=O)N[C@H](C=O)Cc2ccccc2)Cc2cc(Cl)ccc2S1(=O)=O (stereo not given in full)
Query: Of P and Q , whose reported pIC50 is the larger number? Bench note: the answer is the label of the chosen record.
Result: Q
